Values compiled from ChEMBL document CHEMBL2321812.

Test: Bioavailability in male ICR mouse measured from AUC (0 to infinity) at 5 mg/kg, ip
Assay type: ADME, organism-based
Conditions: in vivo
measurement-label: bioavailability (%)
Please reply with the bare figure in % and do not write the unit itself.

The compound listed as CS(=O)(=O)c1ccc(-c2nnc(/C=C/c3nnc(-c4ccc(C#N)cc4)o3)n2-c2ccccc2Cl)nc1 has a reported bioavailability of 133

---

Assay: AUC (0 to t) in female ICR mouse at 5 mg/kg, po
Type: ADME, organism-based
Parameters: dose 5 mg/kg, route oral
Settings: plasma
measurement-label: AUC(0-t)

Input CS(=O)(=O)c1ccc(-c2nnc(/C=C/c3nnc(-c4ccc(C#N)cc4)o3)n2-c2ccccc2Cl)nc1 . Output AUC(0-t): 6740 ng·h/mL
